Provenance of the data: PubChem BioAssay AID2060502

# key: entry, value: IC50
- Tested on: 885724-159-R-J1-PDC complex spheroid viability;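 note: spheroids exposed to agents for seven days before readout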
- ASSAY_PROCEDURE: Anticancer human tumor 885724-159-R-J1-PDC patient-derived pancreatic adenocarcinoma cell line growth inhibition [GQUAD]
- CONDITION_DESCRIPTION: curve of first compound; second compound 3.16 µM
Please reply with the bare figure in nM and do not write the unit itself.

Please review the following examples before continuing.
{"columns": ["MOLECULE", "ENDPOINT_RESULT"],
 "data": [
  ["CC(C)n1c(=O)n(C)c2cnc3cc(F)c(-c4ccc(OCCCN5CCCCC5)nc4)cc3c21 + Cc1cnc(CNC(=O)c2c(=O)c3ccc(N4CCCN(C)CC4)nc3n3c2sc2ccccc23)cn1", 6480],
  ["COc1cccc2c1C(=O)c1c(O)c3c(c(O)c1C2=O)CC(O)(C(=O)CO)CC3OC1CC(N)C(O)C(C)O1 (stereo not given) + Cc1cnc(CNC(=O)c2c(=O)c3ccc(N4CCCN(C)CC4)nc3n3c2sc2ccccc23)cn1", 1050],
  ["CC(C)(O)C1CCC(Nc2ccc3ncc(-c4cccc(C(F)(F)F)c4)n3n2)CC1 (stereo not given) + Cc1cnc(CNC(=O)c2c(=O)c3ccc(N4CCCN(C)CC4)nc3n3c2sc2ccccc23)cn1", 1190],
  ["C#Cc1c(F)ccc2cc(O)cc(-c3ncc4c(N5CC6CCC(C5)N6)nc(OCC56CCCN5CC(F)C6)nc4c3F)c12 (stereo not given) + Cc1cnc(CNC(=O)c2c(=O)c3ccc(N4CCCN(C)CC4)nc3n3c2sc2ccccc23)cn1", 2330],
  ["C=CCn1c(=O)c2cnc(Nc3ccc(N4CCN(C)CC4)cc3)nc2n1-c1cccc(C(C)(C)O)n1 + CN(C)c1ccc(Nc2c3ccc(NC(=O)CCN4CCCC4)cc3nc3cc(NC(=O)CCN4CCCC4)ccc23)cc1", 714],
  ["CC1COCCN1c1cc(C2(O)CC3CCC(C2)O3)c2cnn(-c3ccn[nH]3)c2n1 (stereo not given) + Cc1cnc(CNC(=O)c2c(=O)c3ccc(N4CCCN(C)CC4)nc3n3c2sc2ccccc23)cn1", 184],
  ["CC1COCCN1c1cc(-c2ccnn2C)c2ccnc(-c3ccn[nH]3)c2n1 (stereo not given) + Cc1cnc(CNC(=O)c2c(=O)c3ccc(N4CCCN(C)CC4)nc3n3c2sc2ccccc23)cn1", 609],
  ["O=C(NO)c1cnc(N2CCN(S(=O)(=O)c3ccc4ccccc4c3)CC2)nc1 + CN(C)c1ccc(Nc2c3ccc(NC(=O)CCN4CCCC4)cc3nc3cc(NC(=O)CCN4CCCC4)ccc23)cc1", 519]
]}

# context switch: different molecule, same IC50
Q: Which IC50 is reported with 885724-159-R-J1-PDC complex spheroid viability for this entry: CCCS(=O)(=O)Nc1ccc(F)c(C(=O)c2c[nH]c3ncc(-c4ccc(Cl)cc4)cc23)c1F + CN(C)c1ccc(Nc2c3ccc(NC(=O)CCN4CCCC4)cc3nc3cc(NC(=O)CCN4CCCC4)ccc23)cc1 ?
Result: 9740
